From: PubChem BioAssay (EPA / NIEHS)

- Read-out: Human Leukocyte Antigen - DR isotype (HLADR), HLA-DRA (gene 3122)
- Method Notes: BSK_BE3C_HLADR: BioMAP Diversity Plus: BE3C Assay for Human Leukocyte Antigen - DR isotype (HLADR) Biomarker Activity (AID 2283032)
- Condition Notes: primary human bronchial epithelial cells; actives raise or lower the signal
Calls of active or inactive are those of the source. How the source made its calls: active means hit-call score of the fitted dose curve at least 0.9, where 1 is the maximum; inactive means score below 0.9.
Would you mind answering with one of these outcomes? 1 = active, 0 = inactive

Q: Which result was noted for this compound in the test: O=C(O)C(F)(F)C(F)(F)C(F)(F)C(F)(F)C(F)(F)C(F)(F)C(F)(F)F
Result: 0

Q: Just curious, what result did Cc1cc(C)nc(NC(=O)NS(=O)(=O)c2ccccc2C(=O)OC2COC2)n1 get here?
Result: 0

Q: Hey, what did the test say about C#CCN1C(=O)COc2cc(F)c(N3C(=O)C4=C(CCCC4)C3=O)cc21 ?
Result: 1

Q: Record request — test call for C[C@H]1[C@H](c2ccc(Cl)cc2)SC(=O)N1C(=O)NC1CCCCC1
Result: 1

Q: # fetch the recorded call for CCC(C)(C)C(=O)OC1=C(c2ccc(Cl)cc2Cl)C(=O)OC12CCCCC2 here
Result: 1

Q: Status in this test for CCC(C)Nc1c([N+](=O)[O-])cc(C(C)(C)C)cc1[N+](=O)[O-] (stereo unspecified) ?
Result: 0

Q: Recorded call for Oc1ccc(Cl)cc1Cc1ccccc1 ?
Result: 1

Q: Which outcome was entered for the compound O=[N+]([O-])/N=C1\NCCN1Cc1ccc(Cl)nc1 in this test?
Result: 0

Q: Per the assay record, what outcome was assigned to CCC(C)(NC(=O)c1cc(Cl)c(C)c(Cl)c1)C(=O)CCl (stereo unspecified) ?
Result: 1

Q: Dear colleague, could you share the recorded outcome for COP(=S)(OC)Oc1ccc([N+](=O)[O-])cc1 when you have a moment?
Result: 0

Q: Answer briefly: the call reported for N#Cc1c(Cl)c(Cl)c(Cl)c(C#N)c1Cl in this assay.
Result: 1

###

- Method Notes: APR_HepG2_MitoMass_72hr: Apredica 72-hour HepG2 Assay for Mitochondrial Mass (AID 2282924);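 further: MitoTracker Red CMXRos stain intensity per cell imaged as mitochondrial mass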
- Condition Notes: high-content imaging, actives raise or lower the signal
Activity calls are given as the source filed them. Rule for the calls: active = hit-call score of the fitted dose curve at least 0.9, where 1 is the maximum; inactive = score below 0.9.
Reported Endpoint: outcome

record_smiles=COP(=O)(OC)OC=C(Cl)Cl measured=inactive
record_smiles=COc1nn(CSP(=S)(OC)OC)c(=O)s1 measured=inactive
record_smiles=[2H]C1([2H])[n+]2ccccc2-c2cccc[n+]2C1([2H])[2H] measured=inactive

###

- Assayed System: chicken Estrogen Receptor (ESR1), ESR1 (gene 396099)
- Method Notes: ATG_chERa_XSP1: Attagene TRANS-FACTORIAL Multi-Species (XSP1) HepG2 Assay for chicken Estrogen Receptor (ESR1) (AID 2283779)
Inconclusive results are not listed. Calls of active or inactive are those of the source. Rule for the calls: active = hit-call score of the fitted dose curve at least 0.9, where 1 is the maximum; inconclusive = response in the unintended direction; inactive = score below 0.9.
Reported Endpoint: AC50

Solved entries:
compound=CCOCN(C(=O)CCl)c1c(C)cccc1CC measured=inactive
compound=CCCN(CCC)c1c([N+](=O)[O-])cc(C(F)(F)F)cc1[N+](=O)[O-] measured="27.2 µM (active)"
compound=COP(=S)(OC)Oc1ccc(SC)c(C)c1 measured="25.6 µM (active)"
compound=CCCN(CCOc1c(Cl)cc(Cl)cc1Cl)C(=O)n1ccnc1 measured=inactive
compound="CC1(C)C(C=C(Cl)Cl)C1C(=O)OC(C#N)c1ccc(F)c(Oc2ccccc2)c1 (stereo unspecified)" measured="27.5 µM (active)"

Turning now to a further compound:
Q: So what does the record say about AC50 for Oc1cc(Cl)ccc1Oc1ccc(Cl)cc1Cl ?
Result: inactive

###

- Read-out: Vascular cell adhesion molecule 1 (VCAM1), VCAM1 (gene 7412)
- Method Notes: BSK_CASM3C_VCAM1: BioMAP Diversity Plus: CASM3C Assay for Vascular cell adhesion molecule 1 (VCAM1) Biomarker Activity (AID 2283055);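 further: VCAM-1 protein level quantified by ELISA on the cells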
- Condition Notes: primary human coronary artery smooth muscle cells; actives raise or lower the signal
The source made the active and inactive calls. Rule for the calls: active = hit-call score of the fitted dose curve at least 0.9, where 1 is the maximum; inactive = score below 0.9.
Assign a class; possible classes are true (1) (active), false (0) (inactive)

Q: Answer briefly: the call reported for CCS(=O)(=O)c1cccnc1S(=O)(=O)NC(=O)Nc1nc(OC)cc(OC)n1 in this assay.
Result: false (0)

Q: State the result this test recorded for CNC(=O)Oc1cccc(N=CN(C)C)c1 .
Result: false (0)

Q: # fetch the recorded call for C[C@H]1[C@H](c2ccc(Cl)cc2)SC(=O)N1C(=O)NC1CCCCC1 here
Result: false (0)

Q: Would you mind telling me which call this test gave CC[C@H](C)[C@H]1O[C@]2(C=C[C@@H]1C)C[C@@H]1C[C@@H](C/C=C(\C)[C@@H](O[C@H]3C[C@H](OC)[C@@H](O[C@H]4C[C@H](OC)[C@@H](O)[C@H](C)O4)[C@H](C)O3)[C@@H](C)/C=C/C=C3\CO[C@@H]4[C@H](O)C(C)=C[C@@H](C(=O)O1)[C@]34O)O2 (tested in a mixture with another compound) ?
Result: true (1)

###

- Read-out: urokinase plasminogen activator (uPA), PLAU (gene 5328)
- Method Notes: BSK_KF3CT_uPA: BioMAP Diversity Plus: KF3CT Assay for urokinase plasminogen activator (uPA) Biomarker Activity (AID 2283075)
- Condition Notes: primary human keratinocytes with fibroblasts; actives raise or lower the signal
Calls of active or inactive are those of the source. How the source made its calls: active means hit-call score of the fitted dose curve at least 0.9, where 1 is the maximum; inactive means score below 0.9.
// classify into active, inactive

Q: Hi team, can someone confirm the assay call for CCCN(CCC)c1c([N+](=O)[O-])cc(C(F)(F)F)cc1[N+](=O)[O-] ?
Result: inactive

Q: Could you please tell me the result logged for CCc1ccc(C(=O)NN(C(=O)c2cc(C)cc(C)c2)C(C)(C)C)cc1 in this assay?
Result: inactive

Q: Recorded test outcome, item CNC(=O)Oc1cccc(N=CN(C)C)c1
Result: inactive

Q: Which result was noted for this compound in the test: [2H]C1([2H])[n+]2ccccc2-c2cccc[n+]2C1([2H])[2H]
Result: active

Q: Please indicate how the test categorized CCOc1nc(NC)nc(NC(=O)NS(=O)(=O)c2ccccc2C(=O)OC)n1 .
Result: active

Q: Record lookup: outcome of this test for O=C(Nc1ccccc1)Nc1cnns1 ?
Result: inactive

Q: What outcome does the record of this test show for CN1CSC(=S)N(C)C1 ?
Result: inactive

Q: For this compound, state the assay outcome: Oc1cc(Cl)ccc1Oc1ccc(Cl)cc1Cl
Result: active

Q: Answer briefly: the call reported for OCCOc1ccccc1 in this assay.
Result: inactive

Q: Query: recorded result category for C[C@H]1[C@H](c2ccc(Cl)cc2)SC(=O)N1C(=O)NC1CCCCC1 in this test
Result: inactive

Q: Assay result, entry CC(C)(C)C(O)C(Oc1ccc(Cl)cc1)n1cncn1 (stereo unspecified) — outcome?
Result: inactive

Q: Per the assay record, what outcome was assigned to O=C1c2ccccc2C(=O)N1SC(Cl)(Cl)Cl ?
Result: inactive

Q: I would be grateful if you could indicate the recorded call for CCOCN(C(=O)CCl)c1c(C)cccc1CC .
Result: inactive

Q: Outcome logged for CC1(c2ccc(Oc3ccccc3)cc2)OC(=O)N(Nc2ccccc2)C1=O (stereo unspecified) in this assay:
Result: inactive

Q: State the result this test recorded for COC(=O)c1ccccc1S(=O)(=O)NC(=O)Nc1nc(C)nc(OC)n1 .
Result: inactive

Q: Answer briefly: the call reported for COP(=S)(OC)Oc1ccc([N+](=O)[O-])cc1 in this assay.
Result: inactive

Q: // return assay outcome for CCC(C)(NC(=O)c1cc(Cl)c(C)c(Cl)c1)C(=O)CCl (stereo unspecified)
Result: active

Q: Answer briefly: the call reported for CCOC1Oc2ccc(OS(C)(=O)=O)cc2C1(C)C (stereo unspecified) in this assay.
Result: inactive

Q: Recorded call for CC(C)(C)C(O)/C(=C\c1ccc(Cl)cc1Cl)n1cncn1 (stereo unspecified) ?
Result: active

Q: # outcome recorded in this test, key = Cc1[nH]c(=O)n(C(C)(C)C)c(=O)c1Cl
Result: inactive

Q: Which outcome was assigned to O=[N+]([O-])c1c(Cl)c(Cl)c(Cl)c(Cl)c1Cl in this test?
Result: active

###

- Assayed System: Retinoic acid receptor alpha (Homo sapiens) (UniProt P10276)
- Sequence (P10276 whole entry, looked up): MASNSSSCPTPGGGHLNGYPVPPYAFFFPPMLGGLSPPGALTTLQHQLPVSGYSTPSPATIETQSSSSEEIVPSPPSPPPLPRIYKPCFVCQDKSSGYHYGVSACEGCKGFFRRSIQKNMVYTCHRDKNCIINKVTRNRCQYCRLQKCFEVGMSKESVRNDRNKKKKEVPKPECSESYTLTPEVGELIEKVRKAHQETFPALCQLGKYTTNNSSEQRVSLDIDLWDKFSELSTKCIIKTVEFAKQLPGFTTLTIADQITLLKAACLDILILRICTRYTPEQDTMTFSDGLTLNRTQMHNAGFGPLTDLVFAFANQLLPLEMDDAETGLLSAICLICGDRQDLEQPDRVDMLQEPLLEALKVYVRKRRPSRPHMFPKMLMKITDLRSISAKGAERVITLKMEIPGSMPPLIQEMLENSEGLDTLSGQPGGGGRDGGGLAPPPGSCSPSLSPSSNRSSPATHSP
- Method Notes: NVS_NR_hRAR_Antagonist: NovaScreen (NVS) Nuclear Receptor Binding Assay for human Retinoic Acid Alpha Receptor Antagonism (RAR) (AID 2283358)
Inconclusive results are not listed. Calls of active or inactive are those of the source. How the source made its calls: active means hit-call score of the fitted dose curve at least 0.9, where 1 is the maximum; inconclusive means response in the unintended direction; inactive means score below 0.9.
Reported Endpoint: outcome

compound=COC(=O)c1ccccc1S(=O)(=O)NC(=O)Nc1nc(C)nc(OC)n1 measured=inactive
compound=O=[N+]([O-])c1c(Cl)c(Cl)c(Cl)c(Cl)c1Cl measured=inactive
compound=Oc1ccc(Cl)cc1Cc1ccccc1 measured=inactive
compound="CC1(c2ccc(Oc3ccccc3)cc2)OC(=O)N(Nc2ccccc2)C1=O (configuration not stated)" measured=inactive
compound=CCCN(CCOc1c(Cl)cc(Cl)cc1Cl)C(=O)n1ccnc1 measured=inactive

Q: Report outcome for COC(=O)c1ccccc1S(=O)(=O)NC(=O)N(C)c1nc(C)nc(OC)n1 please.
Result: inactive

Q: Consider the compound shown here: O=[N+]([O-])/N=C1\NCCN1Cc1ccc(Cl)nc1 What is its recorded outcome?
Result: inactive
